These data points were gathered from the Immune Epitope Database (IEDB).

targetSystem: HLA-A*33:01
assayProtocol: IEDB peptide-MHC binding, purified MHC/competitive/radioactivity; filed as Kd, often an IC50 or EC50 that approximates it; bounds were set here for any values at or beyond the usual limits of such assays
particulars: source organism: Mammarenavirus juninense
pKd: −log10 of the molar value.

{"constructSequence": "ANKQYIHCFR", "targetSystem": "HLA-A*33:01", "relationOperator": "=", "pKd": 6.89}
{"constructSequence": "KYIHCFRKPH", "targetSystem": "HLA-A*33:01", "relationOperator": "≤", "pKd": 4.34}

====

targetSystem: HLA-B*40:01
assayProtocol: IEDB peptide-MHC binding, purified MHC/competitive/radioactivity; filed as Kd, often an IC50 or EC50 that approximates it; bounds were set here for any values at or beyond the usual limits of such assays
particulars: source organism: Mammarenavirus tacaribeense

{"constructSequence": "EEVPTLIKTL", "unitTag": "µM", "Kd": 7.52}
